Reference source: patent US7084301B2

- TEST_SYSTEM: UniProt P35368
- Sequence (P35368 whole entry): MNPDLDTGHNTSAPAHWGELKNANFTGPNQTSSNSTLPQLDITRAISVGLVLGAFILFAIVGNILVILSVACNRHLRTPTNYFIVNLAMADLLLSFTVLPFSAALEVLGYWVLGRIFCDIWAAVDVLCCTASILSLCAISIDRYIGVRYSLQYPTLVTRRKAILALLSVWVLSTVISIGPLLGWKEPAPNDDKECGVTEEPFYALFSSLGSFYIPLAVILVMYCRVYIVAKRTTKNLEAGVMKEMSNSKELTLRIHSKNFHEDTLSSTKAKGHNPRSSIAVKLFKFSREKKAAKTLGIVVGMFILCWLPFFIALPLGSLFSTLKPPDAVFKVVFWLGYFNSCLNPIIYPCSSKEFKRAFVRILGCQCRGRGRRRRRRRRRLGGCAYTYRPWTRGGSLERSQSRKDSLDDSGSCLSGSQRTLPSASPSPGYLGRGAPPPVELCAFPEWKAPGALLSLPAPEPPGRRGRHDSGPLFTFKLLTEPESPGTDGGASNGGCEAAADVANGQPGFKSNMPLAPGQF
- ASSAY_EXPLANATION: Radioligand-receptor binding assay, human recombinant α1B-adrenoceptor, [3H]prazosin
MEASURED_QUANTITY: Ki (nM)
Numbers only; they are read as nM.

Example entries and their recorded answers appear below.
[
  {
    "COMPOUND": "CCOc1ccccc1OCCN[C@H](C)Cc1ccc(O)c(S(N)(=O)=O)c1 [Formula I]",
    "Ki [nM]": 0.324
  },
  {
    "COMPOUND": "CCOc1ccccc1OCCNC(C)Cc1ccc(O)c(S(N)(=O)=O)c1 (racemic) [Racemate]",
    "Ki [nM]": 1.1
  }
]

Next up:
// field: Ki; key: CCOc1ccccc1OCCN[C@@H](C)Cc1ccc(O)c(S(N)(=O)=O)c1 [(S)-isomer] ; value = 21.9
